- MEASUREMENT_TARGET: Pimelobacter simplex PinR (AIY20223.2; SEQ ID NO: 1), his-tagged (AIY-his6)
- EXPERIMENT_NOTES: QD-FRET steroid sensor (QD-PinR + DNA-Cy5), steroid-induced TF-DNA unbinding
- Format: biochemical
- TEST_CONTEXT: DNA1; QD/TF/DNA 1/4/18; read-out: X0
ATTRIBUTE_MEASURED: IC50 (µM)
Respond numerically; units are µM and should not be typed.

Requested read-out: IC50. Entry: `CC(=O)[C@H]1CC[C@H]2[C@@H]3CCC4=CC(=O)CC[C@]4(C)[C@H]3CC[C@]12C`
0.46

* * *

- MEASUREMENT_TARGET: Pimelobacter simplex PinR (AIY20223.2; SEQ ID NO: 1), his-tagged (AIY-his6)
- EXPERIMENT_NOTES: QD-FRET steroid sensor (QD-PinR + DNA-Cy5), steroid-induced TF-DNA unbinding
- Format: biochemical
- TEST_CONTEXT: DNA 4; QD/TF/DNA 1/4/18 (Table 12); read-out: X0
ATTRIBUTE_MEASURED: IC50 (nM)
Respond numerically; units are nM and should not be typed.

Requested read-out: IC50. Entry: CC(=O)[C@H]1CC[C@H]2[C@@H]3CCC4=CC(=O)CC[C@]4(C)[C@H]3CC[C@]12C [PRG, Progesterone]
150

* * *

- MEASUREMENT_TARGET: Pimelobacter simplex PinR (AIY20223.2; SEQ ID NO: 1), his-tagged (AIY-his6)
- EXPERIMENT_NOTES: QD-FRET steroid sensor (QD-PinR + DNA-Cy5), steroid-induced TF-DNA unbinding
- Assay type: biochemical
- TEST_CONTEXT: DNA 4; QD/TF/DNA 1/1/18; read-out: X0
ATTRIBUTE_MEASURED: pIC50
Remember the convention: pIC50 equals -log10 of concentration in molar.

Requested read-out: pIC50. Entry: `CC(=O)[C@H]1CC[C@H]2[C@@H]3CCC4=CC(=O)CC[C@]4(C)[C@H]3CC[C@]12C`
7.13

* * *

- MEASUREMENT_TARGET: Pimelobacter simplex PinR (AIY20223.2; SEQ ID NO: 1), his-tagged (AIY-his6)
- EXPERIMENT_NOTES: QD-FRET steroid sensor (QD-PinR + DNA-Cy5), steroid-induced TF-DNA unbinding
- Format: biochemical
- TEST_CONTEXT: DNA 3; QD/TF/DNA 1/4/18 (Table 11); read-out: X0
ATTRIBUTE_MEASURED: IC50

Requested read-out: IC50. Entry: `CC(=O)[C@H]1CC[C@H]2[C@@H]3CCC4=CC(=O)CC[C@]4(C)[C@H]3CC[C@]12C`
290 nM

* * *

- MEASUREMENT_TARGET: Pimelobacter simplex PinR (AIY20223.2; SEQ ID NO: 1), his-tagged (AIY-his6)
- EXPERIMENT_NOTES: QD-FRET steroid sensor (QD-PinR + DNA-Cy5), steroid-induced TF-DNA unbinding
- Assay type: biochemical
- TEST_CONTEXT: DNA 3; QD/TF/DNA 1/1/2; read-out: X0
ATTRIBUTE_MEASURED: IC50 (nM)
Respond numerically; units are nM and should not be typed.

Requested read-out: IC50. Entry: `CC(=O)[C@H]1CC[C@H]2[C@@H]3CCC4=CC(=O)CC[C@]4(C)[C@H]3CC[C@]12C`
210

* * *

- MEASUREMENT_TARGET: Pimelobacter simplex PinR (AIY20223.2; SEQ ID NO: 1), his-tagged (AIY-his6)
- EXPERIMENT_NOTES: QD-FRET steroid sensor (QD-PinR + DNA-Cy5), steroid-induced TF-DNA unbinding
- Type: biochemical
- TEST_CONTEXT: DNA 3; QD/TF/DNA 1/10/18; read-out: X0
ATTRIBUTE_MEASURED: pIC50
Remember the convention: pIC50 equals -log10 of concentration in molar.

Could you share what pIC50 was measured for `CC(=O)[C@H]1CC[C@H]2[C@@H]3CCC4=CC(=O)CC[C@]4(C)[C@H]3CC[C@]12C` , tested on Pimelobacter simplex PinR (AIY20223.2; SEQ ID NO: 1), his-tagged (AIY-his6)?
6.41

* * *

- MEASUREMENT_TARGET: PinR (Nocardioides simplex (Pimelobacter simplex), UniProt A0A0A1DUF2)
- Sequence (A0A0A1DUF2 entry or part of it): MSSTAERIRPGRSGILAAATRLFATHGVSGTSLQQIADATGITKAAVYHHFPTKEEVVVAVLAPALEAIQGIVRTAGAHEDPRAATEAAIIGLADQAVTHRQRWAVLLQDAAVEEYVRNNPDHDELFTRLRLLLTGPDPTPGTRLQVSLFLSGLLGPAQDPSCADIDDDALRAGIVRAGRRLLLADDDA
# IC50 per entry
Respond numerically; units are nM and should not be typed.

{"columns": ["MOLECULE", "UNIT_TAG", "VALUE_OBSERVED"],
 "data": [
  ["CC(=O)[C@H]1CC[C@H]2[C@@H]3CCC4=CC(=O)CC[C@]4(C)[C@H]3CC[C@]12C", "nM", 59],
  ["C[C@]12CCC(=O)C=C1CC[C@@H]1[C@@H]2[C@@H](O)C[C@@]2(C)[C@H]1CC[C@]2(O)C(=O)CO [CRT, Hydrocortisone]", "nM", 180]
]}

Let us examine a further case.
Requested read-out: IC50. Entry: `C[C@]12CCC(=O)C=C1CC[C@@H]1[C@@H]2[C@@H](O)C[C@]2(C=O)[C@@H](C(=O)CO)CC[C@@H]12`
289

* * *

# highest steroid concentration exhibiting normal growth profile per entry
- Tested on: Pimelobacter simplex
- EXPERIMENT_NOTES: Solvent and steroid exposure growth curves
- TEST_CONTEXT: P. simplex, starting OD 0.005, constant solvent
- Protocol: In order to identify steroid binding Transcription Factors, a whole transcriptome RNA sequencing (RNA-Seq) screen was developed (FIG. 7). […] In order to properly determine the doubling time of the strain, growth curves were performed. […] Readings were performed over 96 cycles of 15 minutes each at 600 nm absorbance with 25 flashes in a 3×3 (XY-Line) type reads per well. In between reads there was orbital shaking at 150 rpm frequency for a total of 10 minutes. […]
Answer format: number, then unit.

Would you please look over these solved cases?
{"columns": ["ENTRY_SMILES", "VALUE_OBSERVED"],
 "data": [
  ["C[C@]12CC[C@@H]3c4ccc(O)cc4CC[C@H]3[C@@H]1CCC2=O", "87.50 µM"],
  ["C[C@]12CC[C@@H]3c4ccc(O)cc4CC[C@H]3[C@@H]1CC[C@@H]2O", "21.88 µM"],
  ["C[C@]12CC[C@H]3[C@@H](CCC4=CC(=O)CC[C@@]43C)[C@@H]1CC[C@@H]2O", "700 µM"]
]}

Requested read-out: highest steroid concentration exhibiting normal growth profile. Entry: `CC(=O)[C@H]1CC[C@H]2[C@@H]3CCC4=CC(=O)CC[C@]4(C)[C@H]3CC[C@]12C`
21.88 µM

* * *

- MEASUREMENT_TARGET: Pimelobacter simplex PinR (AIY20223.2; SEQ ID NO: 1), his-tagged (AIY-his6)
- EXPERIMENT_NOTES: QD-FRET steroid sensor (QD-PinR + DNA-Cy5), steroid-induced TF-DNA unbinding
- Assay type: biochemical
- TEST_CONTEXT: sensor 3 (DNA 2, QD/TF/DNA=1/1/18); read-out: IC50
ATTRIBUTE_MEASURED: IC50 (µM)
Respond numerically; units are µM and should not be typed.

Requested read-out: IC50. Entry: CC(=O)[C@H]1CC[C@H]2[C@@H]3CCC4=CC(=O)CC[C@]4(C)[C@H]3CC[C@]12C [PRG, Progesterone]
0.057

* * *

- MEASUREMENT_TARGET: Pimelobacter simplex PinR (AIY20223.2; SEQ ID NO: 1), his-tagged (AIY-his6)
- EXPERIMENT_NOTES: QD-FRET steroid sensor (QD-PinR + DNA-Cy5), steroid-induced TF-DNA unbinding
- Type: biochemical
- TEST_CONTEXT: DNA 3; QD/TF/DNA 1/16/18; read-out: X0
ATTRIBUTE_MEASURED: IC50
Answer format: number, then unit.

Could you share what IC50 was measured for CC(=O)[C@H]1CC[C@H]2[C@@H]3CCC4=CC(=O)CC[C@]4(C)[C@H]3CC[C@]12C [PRG, Progesterone] , tested on Pimelobacter simplex PinR (AIY20223.2; SEQ ID NO: 1), his-tagged (AIY-his6)?
440 nM

* * *

- MEASUREMENT_TARGET: TetR variant TetRc (TetR-6His, on QD1)
- EXPERIMENT_NOTES: FRET sensor 2 (QD1-TetRc + Cy5-DNA) titrated with aTc; aTc-induced TF-DNA unbinding
- Type: biochemical
- TEST_CONTEXT: sensor 2; legend of FIG. 4; read-out: c50 (analyte concentration that yields 50% signal, EC50)
ATTRIBUTE_MEASURED: pEC50
Remember the convention: pEC50 equals -log10 of concentration in molar.

Requested read-out: pEC50. Entry: Cc1c2c(c(O)c3c(O)cccc13)C(=O)[C@]1(O)C(=O)C(C(N)=O)=C(O)[C@@H](N(C)C)[C@@H]1C2 [aTc, anhydrotetracycline]
6.17
